Recorded values, source paper PMC6273488.

- assayDetails: in vitro
- Format: cell-based
- particulars: HepG2, 30 µM, 24 h, MTT; read-out: In vitro toxicity (% cell viability)
reportedProperty: viability at 24 h, 30 µM

Ask: Give a short answer stating reported viability at 24 h, 30 µM for Nc1c2c(nc3ccccc13)CCCC2 [Tacrine, tacrine, reference compound] .
Reply: 93%

###

- assayDetails: Oxygen radical absorbance capacity by fluorescence (ORAC-FL)
- particulars: mean ± SD
Reported ORAC values are given for each entry in this list.
Unit Trolox equivalents implied. Number only.

Check out these entries, answers already filled in.
- O=c1c2c(nc3n1CCCCC3)Oc1c(ccc3ccccc13)C2c1ccccc1 (centres unmarked): 2.5
- Cc1ccc(C2c3c(nc4n(c3=O)CCCCC4)Oc3ccc4ccccc4c32)cc1 (centres unmarked): 3.1
- Cc1ccc(C2c3c(nc4n(c3=O)CCC4)Oc3ccc4ccccc4c32)cc1 (centres unmarked): 2.7
- Cc1ccc(C2c3ccc4ccccc4c3Oc3nc4n(c(=O)c32)CCCCC4)cc1 (centres unmarked): 3.6
- COc1cccc(C2c3ccc4ccccc4c3Oc3nc4n(c(=O)c32)CCC4)c1 (centres unmarked): 3.8

Ask: Give a short answer stating reported ORAC for COc1cccc(C2c3c(nc4n(c3=O)CCCCC4)Oc3ccc4ccccc4c32)c1 (centres unmarked) .
Reply: 3.5

Ask: Give a short answer stating reported ORAC for O=c1c2c(nc3n1CCCC3)Oc1ccc3ccccc3c1C2c1ccccc1 (centres unmarked) .
Reply: 2.3

Ask: Give a short answer stating reported ORAC for O=c1c2c(nc3n1CCC3)Oc1c(ccc3ccccc13)C2c1ccccc1 (centres unmarked) .
Reply: 2.1
